Protocol details: solubility-pH by aqueous dilution method, 96-well UV
Assay type: physicochemical
Recorded conditions: universal buffer solution, kinetic from dmso stock, 0.5% v/v DMSO, 4 h shaking, read-out: So^APP (apparent intrinsic solubility)
Assay metric: log10(solubility at 4 h) (log10 of the value in µg/mL)

molecule=O=C(O)c1ccc2ccccc2c1 readout_number=1.52
molecule=O=C(O)Cc1ccccc1Nc1c(Cl)cccc1Cl readout_number=1.35
molecule=CN(C)CCC=C1c2ccccc2CCc2ccccc21 readout_number=1.76
molecule="CC(C)(C)c1ccc(C(O)CCCN2CCC(C(O)(c3ccccc3)c3ccccc3)CC2)cc1 (centres unmarked)" readout_number=0.64
molecule=CCCN(CCC)S(=O)(=O)c1ccc(C(=O)O)cc1 readout_number=0.66

###

This listing pairs compounds with measured solubility.
Protocol details: true aqueous intrinsic solubility corrected from pKa shifts
Format: physicochemical
Recorded conditions: saturated pH-buffered aqueous solution (universal buffer), aqueous buffer, kinetic from dmso stock; read-out: corrected So (intrinsic solubility corrected for drug-DMSO/drug-aggregate effects)
Assay metric: solubility (µg/mL)

compound=CN(C)CCC=C1c2ccccc2CCc2ccccc21 readout_number=3
compound=O=C(O)c1ccc2ccccc2c1 readout_number=20.2
compound="Clc1ccc(COC(Cn2ccnc2)c2ccc(Cl)cc2Cl)c(Cl)c1 (centres unmarked)" readout_number=1.6
compound="CC(C)(C)c1ccc(C(O)CCCN2CCC(C(O)(c3ccccc3)c3ccccc3)CC2)cc1 (centres unmarked)" readout_number=0.1
compound=COc1ccc2c(c1)c(CC(=O)O)c(C)n2C(=O)c1ccc(Cl)cc1 readout_number=4.1
compound=COC1=CC(=O)C[C@@H](C)[C@]12Oc1c(Cl)c(OC)cc(OC)c1C2=O readout_number=20.2
compound=O=C(O)Cc1ccccc1Nc1c(Cl)cccc1Cl readout_number=3.8
compound=CCCN(CCC)S(=O)(=O)c1ccc(C(=O)O)cc1 readout_number=0.7

###

Protocol details: true aqueous intrinsic solubility corrected from pKa shifts
Assay type: physicochemical
Recorded conditions: aqueous buffer, kinetic from dmso stock; at high pH; read-out: solubility (lowest value)
Assay metric: solubility

compound="CC(C)(C)c1ccc(C(O)CCCN2CCC(C(O)(c3ccccc3)c3ccccc3)CC2)cc1 (stereo not shown)" assay_metric=solubility result="~0.1 µg/mL"

###

Protocol details: intrinsic solubility by pSOL Model 3 acid-base titrator
Type: physicochemical
Recorded conditions: pION unpublished data (footnote f)
Description: Solubility determinations are illustrated with 15 sparingly-soluble generic, mostly-ionizable drugs (FIG. 1), covering about three orders of magnitude in solubilities, with the lowest value being about 0.1 μg/mL (terfenadine at high pH). […] The results of the solubility measurements were compared to literature equilibrium solubility-pH values from reliable sources, and to values determined by the pSOL Model 3 (pION) acid-base titrator [A. Avdeef, C. […]
This listing pairs compounds with measured pSOL So.
Assay metric: pSOL So

compound=CCCN(CCC)S(=O)(=O)c1ccc(C(=O)O)cc1 result="0.6^f μg/mL"
compound="Clc1ccc(COC(Cn2ccnc2)c2ccc(Cl)cc2Cl)c(Cl)c1 (stereo not shown)" result="0.7^f μg/mL"
compound="CC(C)(C)c1ccc(C(O)CCCN2CCC(C(O)(c3ccccc3)c3ccccc3)CC2)cc1 (stereo not shown)" result="0.1^f μg/mL"
compound=Nc1ccc(/N=N/c2ccccc2)c(N)n1 result="14.3^f μg/mL"

###

This listing pairs compounds with measured pKa.
Protocol details: true pKa of the compounds (commercial pKa instruments / literature)
Format: physicochemical
Recorded conditions: pION unpublished data (footnote f)
Assay metric: pKa

compound="CC(C)(C)c1ccc(C(O)CCCN2CCC(C(O)(c3ccccc3)c3ccccc3)CC2)cc1 (centres unmarked)" result=9.53
compound=O=C(O)c1ccc2ccccc2c1 result=4.16
compound=CCCN(CCC)S(=O)(=O)c1ccc(C(=O)O)cc1 result=3.01
compound=Nc1ccc(/N=N/c2ccccc2)c(N)n1 result=5.15
compound="Clc1ccc(COC(Cn2ccnc2)c2ccc(Cl)cc2Cl)c(Cl)c1 (centres unmarked)" result=6.07
